Attribute: Ratio Ki
- procedure.summary: Selectivity ratio of Ki for recombinant cannabinoid CB1 receptor to Ki for recombinant cannabinoid CB2 receptor
Kindly provide the number alone.

Worked cases, answers included:
O=S(=O)(c1cc2ccccc2n1S(=O)(=O)c1cccnc1)N1CCC(CNS(=O)(=O)C(F)(F)F)CC1 ... 139
C[C@@H]1CN(S(=O)(=O)c2cc3ccccc3n2S(=O)(=O)c2ccccc2F)CC[C@@H]1CNS(=O)(=O)C(F)(F)F ... 6670
CC1(C)CN(S(=O)(=O)c2cc3ccccc3n2S(=O)(=O)c2ccccc2F)CCC1CNS(=O)(=O)C(F)(F)F (centres undefined) ... 245

Ask: I am curious: what Ratio Ki value has been reported for C[C@@H]1CN(S(=O)(=O)c2cc3ccccc3n2S(=O)(=O)c2ccccc2F)CC[C@H]1CNS(=O)(=O)C(F)(F)F ?
Result: 2260

* * *

- procedure.summary: Selectivity ratio of Ki for recombinant cannabinoid CB1 receptor to Ki for recombinant cannabinoid CB2 receptor
Classification field: enter Fulfilled for Ratio Ki values not below 1000, Not fulfilled for values below it.

O=S(=O)(c1cc2ccccc2n1S(=O)(=O)c1ccccn1)N1CCC(CNS(=O)(=O)C(F)(F)F)CC1 ... Fulfilled
COc1ccc2c(c1)cc(S(=O)(=O)N1CCC(CNS(=O)(=O)C(F)(F)F)CC1)n2S(=O)(=O)c1ccccc1F ... Fulfilled

Ask: Is the recorded value of Ratio Ki equal to or greater than 1000 for this compound? O=S(=O)(c1ccccc1F)c1occc1S(=O)(=O)N1CCC(CNS(=O)(=O)C(F)(F)F)CC1
Result: Fulfilled

* * *

- procedure.summary: Selectivity ratio of Ki for recombinant cannabinoid CB1 receptor to Ki for recombinant cannabinoid CB2 receptor
// reported Ratio Ki per item
Field format: numeric only.

O=S(=O)(c1cc2ccccc2n1S(=O)(=O)c1ccccc1F)N1CC(CCNS(=O)(=O)C(F)(F)F)C1 ... 11
CC(NS(=O)(=O)C(F)(F)F)C1CCN(S(=O)(=O)c2cc3ccccc3n2S(=O)(=O)c2ccccc2F)CC1 (stereo not given) ... 2080
O=S(=O)(c1cc2ccccc2n1S(=O)(=O)c1ccccc1F)N1CCC(CNS(=O)(=O)C(F)(F)F)CC1 ... 9250
O=S(=O)(c1cc2ccccc2n1S(=O)(=O)c1ccccc1F)N1CCC2(CC(NS(=O)(=O)C(F)(F)F)C2)C1 (stereo not given) ... 117
COC1(CNS(=O)(=O)C(F)(F)F)CCN(S(=O)(=O)c2cc3cccnc3n2S(=O)(=O)c2ccccc2F)CC1 ... 3200
CCC1(CNS(=O)(=O)C(F)(F)F)CCN(S(=O)(=O)c2cc3cc(F)ccc3n2S(=O)(=O)c2ccccc2F)CC1 ... 2800
O=S(=O)(c1cc2ccccc2n1S(=O)(=O)c1ccccn1)N1CCC2(CC1)C[C@@H]2NS(=O)(=O)C(F)(F)F ... 3500
CCCC1(CNS(=O)(=O)C(F)(F)F)CCN(S(=O)(=O)c2cc3ccccc3n2S(=O)(=O)c2ccccn2)CC1 ... 26400

Ask: Endpoint output: Ratio Ki of Cn1c(S(=O)(=O)c2ccccc2F)c(S(=O)(=O)N2CCC(CNS(=O)(=O)C(F)(F)F)CC2)c2ccccc21 . Value?
Result: 364

Ask: I am curious: what Ratio Ki value has been reported for CC(C)C1(CNS(=O)(=O)C(F)(F)F)CCCN(S(=O)(=O)c2cc3ccccc3n2S(=O)(=O)c2ccccc2F)C1 (stereo not given) ?
Result: 24

Ask: Entry CC1(CNS(=O)(=O)C(F)(F)F)CCN(S(=O)(=O)c2cc3ccccc3n2S(=O)(=O)c2ccccc2F)CC1 : reported Ratio Ki = ?
Result: 6720
